test system: DMS 273 small cell lung; assay: NCI tumour cell line growth inhibition, 48 h
property name: TGI

### Prompt Please report the recorded TGI for N#CC(c1nc2ccccc2nc1Cl)S(=O)(=O)c1ccccc1 (stereo not given) .
### Response > 100 µM

### Prompt Please report the recorded TGI for Cc1ccc(N2C(=O)C3C=CC(n4[nH]c(=O)n(Cc5ccccc5)c4=O)CC3C2=O)cc1 (stereo not given) .
### Response > 100 µM

### Prompt Please report the recorded TGI for C=C1c2[nH]c3c([N+](=O)[O-])c(OC)ccc3c2CCN1C(C)=O .
### Response > 100 µM

### Prompt Please report the recorded TGI for COC(=O)C1=CC2C(=O)OC1CC2C#N (stereo not given) .
### Response > 100 µM

### Prompt Please report the recorded TGI for COC(=O)C1=C(c2cc(OC)c(OC)c(OC)c2)OC(c2ccc(OC)c(OC)c2)C1 (stereo not given) .
### Response > 100 µM

### Prompt Please report the recorded TGI for COc1ccc(C2=NN(c3ccccc3)C[N+](c3ccc(OC)cc3)=N2)cc1 .
### Response 66.1 µM

### Prompt Please report the recorded TGI for CN1c2ccccc2N(C)C23N(C)c4ccccc4N(C)C12N(C)c1ccccc1N3C (stereo not given) .
### Response > 100 µM

### Prompt Please report the recorded TGI for O=C1C(=O)c2ccccc2C(O)=C1CCCc1ccc(Oc2ccccc2)cc1 .
### Response 51.8 µM

### Prompt Please report the recorded TGI for Cc1cccc(C(C)C)c1NC(=O)CC1C(=O)Nc2ccccc2S1(=O)=O (stereo not given) .
### Response 20.5 µM

### Prompt Please report the recorded TGI for [N-]=[N+]=NC(CI)c1cn([C@H]2C[C@H](O)[C@@H](CO)O2)c(=O)[nH]c1=O (stereo not given in full) .
### Response > 100 µM
